Test system: Plasmodium falciparum Dd2 strain (multidrug-resistant)
ASSAY_OVERVIEW: Antiplasmodial fluorescence-based SyBr Green assay, Dd2 strain
Type: cell-based
CONDITION_INFO: Plasmodium falciparum; multidrug-resistant Dd2 strain; 72 hrs; mean of at least two experiments in triplicate; read-out: Antiplasmodial IC50, Dd2 strain
PROPERTY_MEASURED: IC50 (nM)
Answer format: numeric, nM implied, no suffix.

Summary for this compound, Cc1cnc2cc(Cl)ccc2c1N1CCN(CCCN2CCN(c3c(C)cnc4cc(Cl)ccc34)CC2)CC1 [3-methyl-piperaquine] : IC50 is 6.5

Summary for this compound, CCN(CC)CCCC(C)Nc1c(C)cnc2cc(Cl)ccc12 (stereo not shown) [Sontochin, 3-methyl-chloroquine, reference compound] : IC50 is 11.3

Summary for this compound, CCN(CC)CCCNC1=CCNc2cc(Cl)ccc21 [AQ-13, reference compound] : IC50 is 8.1

Summary for this compound, Cc1cnc2cc(Cl)ccc2c1NCCCNC(C)(C)C [Pharmachin 128] : IC50 is 11.6
